# System: CCRIS mutagenicity, Ames/micronucleus/aberration tests
# PROCEDURE DETAILS: CCRIS mutagenicity studies
# TEST SETTINGS: Test System: MOUSE LYMPHOMA; Strain/Indicator: L5178Y (TK+/TK-); Metabolic Activation: RAT, LIVER, S-9; Method: SUSPENSION/PLATE
The source made the active and inactive calls. No rule for the calls is given here.
Answer with one of the outcomes given here: active, inactive

C[C@H](CCC(=O)O)[C@H]1CC[C@H]2[C@@H]3CC[C@@H]4C[C@H](O)CC[C@]4(C)[C@H]3CC[C@]12C; inactive
Cl[Si](Cl)(Cl)Cl; inactive
c1ccc2cc3c(ccc4ccccc43)cc2c1; active
c1ccc2c(c1)c1cccc3ccc4cccc2c4c31; inactive

Prompt: Look up the recorded call for CCO[Si](C)(C)OCC in this test.
Completion: inactive

Prompt: Let us now turn to CCCCC(CC)COC(=O)c1ccccc1C(=O)OCC(CC)CCCC (stereo not drawn)
Completion: inactive

Prompt: Let us now turn to C=CCc1ccc2c(c1)OCO2
Completion: active

Prompt: Let us now turn to Cc1cc(-c2cc(C)c(N)c(C)c2)cc(C)c1N
Completion: inactive

Prompt: Let us now turn to C=CC#N
Completion: active

Prompt: Let us now turn to c1ccc2cc3ccccc3cc2c1
Completion: active

Prompt: Let us now turn to C[Si]1(C)O[Si](C)(C)O[Si](C)(C)O[Si](C)(C)O[Si](C)(C)O1
Completion: inactive

Prompt: Let us now turn to CC(N)=S
Completion: inactive

Prompt: Let us now turn to O=C(c1ccccc1)C(O)c1ccccc1 (stereo not drawn)
Completion: inactive

====

# Test system: CCRIS mutagenicity, Ames/micronucleus/aberration tests
# PROCEDURE DETAILS: CCRIS mutagenicity studies
# TEST SETTINGS: Test System: MOUSE LYMPHOMA; Strain/Indicator: L5178Y (TK+/TK-); Metabolic Activation: NONE; Method: MICROWELL
Active and inactive are the calls of the source. The rule behind the calls is not given here.
Answer with one of the outcomes given here: active, inactive

CN(Cc1cnc2nc(N)nc(N)c2n1)c1ccc(C(=O)N[C@@H](CCC(=O)O)C(=O)O)cc1; active
C[C@H]1C(=O)O[C@@H]2CCN3CC=C(COC(=O)[C@](C)(O)[C@]1(C)O)[C@H]23; active
COC1=CC(=O)C[C@@H](C)[C@]12Oc1c(Cl)c(OC)cc(OC)c1C2=O; active
ClC(Cl)C(Cl)(Cl)Cl; active

Prompt: Look up the recorded call for O=c1[nH]cc(F)c(=O)[nH]1 in this test.
Completion: active

Prompt: Let us now turn to Nc1ccn([C@H]2CC[C@@H](CO)O2)c(=O)n1
Completion: inactive

====

# Tested on: CCRIS mutagenicity, Ames/micronucleus/aberration tests
# PROCEDURE DETAILS: CCRIS mutagenicity studies
# TEST SETTINGS: Test System: AMES SALMONELLA TYPHIMURIUM; Strain/Indicator: YG1024; Metabolic Activation: RAT, LIVER, S-9, PCB; Method: PREINCUBATION
Calls of active or inactive are those of the source. The rule behind the calls is not given here.
MEASURE: mutagenic call

O=[N+]([O-])c1ccc(Nc2ncnc3nc[nH]c23)cc1; inactive; negative
Nc1nc(-c2ccc([N+](=O)[O-])cc2)nc2c1ncn2-c1ccc([N+](=O)[O-])cc1; active; positive
Nc1ncnc2nc(-c3ccc([N+](=O)[O-])cc3)[nH]c12; active; positive
O=[N+]([O-])c1ccc(CNc2ncnc3nc[nH]c23)cc1; inactive; negative

====

# Test system: CCRIS mutagenicity, Ames/micronucleus/aberration tests
# PROCEDURE DETAILS: CCRIS mutagenicity studies
# TEST SETTINGS: Test System: AMES SALMONELLA TYPHIMURIUM; Strain/Indicator: TA1537; Metabolic Activation: RAT LIVER S-9, AROCLOR 1254; Method: STANDARD PLATE
Active and inactive are the calls of the source. How the calls were made is not given here.
Answer with one of the outcomes given here: Y for active, N for inactive

Illustrative cases are given below, each with its answer.
Cc1cc([N+](=O)[O-])c(C)c2c1[nH]c1ccc([N+](=O)[O-])cc12; Y
Cl[Si](Cl)(Cl)Cl; N
CCO[Si](C)(C)OCC; N

Prompt: Look up the recorded call for C[Si]1(C)O[Si](C)(C)O[Si](C)(C)O[Si](C)(C)O[Si](C)(C)O1 in this test.
Completion: N

====

# Test system: CCRIS mutagenicity, Ames/micronucleus/aberration tests
# PROCEDURE DETAILS: CCRIS mutagenicity studies
# TEST SETTINGS: Test System: CHINESE HAMSTER V-79; Strain/Indicator: V-79 (HPRT)/6-THIOGUANINE; Metabolic Activation: NONE
Active and inactive are the calls of the source. No rule for the calls is given here.
Answer with one of the outcomes given here: active, inactive

Illustrative cases are given below, each with its answer.
COc1cc(C[C@@H](CO)[C@H](CO)Cc2ccc(O)c(OC)c2)ccc1O; inactive
CC[C@@]1(O)C(=O)OCc2c1cc1n(c2=O)Cc2cc3ccccc3nc2-1; active
C[n+]1ccc(-c2cc[n+](C)cc2)cc1; inactive
C[C@@H]1O[C@@H]1c1ccccc1; inactive
CC(=O)/C=C/CCC(=O)/C=C/C(=O)O[C@@H](CCC(=O)/C=C/C(=O)O)CC(C)=O; active

From here, focus on the item given below.
Prompt: Look up the recorded call for CCCCOCC=O in this test.
Completion: active

====

# Tested on: CCRIS mutagenicity, Ames/micronucleus/aberration tests
# PROCEDURE DETAILS: CCRIS mutagenicity studies
# TEST SETTINGS: Test System: AMES SALMONELLA TYPHIMURIUM; Strain/Indicator: YG1020; Metabolic Activation: NONE; Method: PREINCUBATION
Active and inactive are the calls of the source. No rule for the calls is given here.
Answer with one of the outcomes given here: 1.0 = active, 0.0 = inactive

Nc1ncnc2nc(-c3ccc([N+](=O)[O-])cc3)[nH]c12; 1.0
O=[N+]([O-])c1ccc(CNc2ncnc3nc[nH]c23)cc1; 0.0
O=[N+]([O-])c1ccc(Nc2ncnc3nc[nH]c23)cc1; 0.0

From here, focus on the item given below.
Prompt: Look up the recorded call for Nc1nc(-c2ccc([N+](=O)[O-])cc2)nc2c1ncn2-c1ccc([N+](=O)[O-])cc1 in this test.
Completion: 1.0

====

# Tested on: CCRIS mutagenicity, Ames/micronucleus/aberration tests
# PROCEDURE DETAILS: CCRIS mutagenicity studies
# TEST SETTINGS: Test System: AMES SALMONELLA TYPHIMURIUM; Strain/Indicator: TA98(NR); Metabolic Activation: NONE; Method: STANDARD PLATE
Active and inactive are the calls of the source. The rule behind the calls is not given here.
MEASURE: mutagenic call

Answered examples (5):
CN(C)CCCNc1c2ccccc2nc2cccc([N+](=O)[O-])c12; active; positive
CN(C)CCCNc1c2ccccc2nc2ccccc12; inactive; negative
O=Nc1ccc(Sc2ccccc2)cc1; active; positive
O=[N+]([O-])c1cc2c3c(c1)CCc1cccc(c1-3)CC2; active; positive
O=[N+]([O-])c1ccc2ccc3cc4ccccc4c4ccc1c2c34; inactive; negative

Now turn to the next molecule.
Prompt: Notebook: pull reported mutagenic call for CCRIS mutagenicity, Ames/micronucleus/aberration tests, entry O=C(/C=C/c1ccc([N+](=O)[O-])o1)N/N=C/c1ccc([N+](=O)[O-])o1
Completion: active; positive

====

# Tested on: CCRIS mutagenicity, Ames/micronucleus/aberration tests
# PROCEDURE DETAILS: CCRIS mutagenicity studies
# TEST SETTINGS: Test System: AMES SALMONELLA TYPHIMURIUM; Strain/Indicator: TA100; Metabolic Activation: NONE; Method: STANDARD PLATE
# From the text: The CCRIS database contains chemical records with carcinogenicity, mutagenicity, tumor promotion, and tumor inhibition test results. It was developed by the National Cancer Institute (NCI). Data are derived from studies cited in primary journals, current awareness tools, NCI reports, and other sources. Test results have been reviewed by experts in carcinogenesis and mutagenesis. CCRIS provides historical information from the years 1985 - 2011. It is no longer updated. […]
Active and inactive are the calls of the source. The rule behind the calls is not given here.
Answer with one of the outcomes given here: true for active, false for inactive

Illustrative cases are given below, each with its answer.
CC(O)C(=O)[O][Al]([O]C(=O)C(C)O)[O]C(=O)C(C)O (stereo not given); false
Nc1ccc(/C=C/c2cccc(Cl)c2)cc1; false
[N-]=[N+]=NC[C@H]1O[C@H](O)[C@H](O)[C@@H](O)[C@H]1O; true
C[Si]1(C)O[Si](C)(C)O[Si](C)(C)O[Si](C)(C)O[Si](C)(C)O1; false
O=Nc1c(-c2ccc([N+](=O)[O-])cc2)nc2sccn12; true

From here, focus on the item given below.
Prompt: Look up the recorded call for CC1CS(=O)(=O)CCN1/N=C/c1ccc([N+](=O)[O-])o1 (stereo not given) in this test.
Completion: true
